B1: Pistol ribozyme (parent)
chain: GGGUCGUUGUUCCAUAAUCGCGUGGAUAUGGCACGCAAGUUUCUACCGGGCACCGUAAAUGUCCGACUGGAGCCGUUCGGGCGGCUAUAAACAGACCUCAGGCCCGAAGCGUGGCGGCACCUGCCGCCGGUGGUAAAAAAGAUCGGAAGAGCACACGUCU

Variants of: B1
Assay: aptazyme ON/OFF ratio, guanine; higher = stronger switching; co-transcriptional cleavage with and without guanine
result.type: aptazyme ON/OFF ratio
Write the value as a bare number.

Before answering, review these 2 worked examples.
U7C U8G U10A U11C C12A	1.13
U7A U8C U10C U11G C13U	1.23

What value of measured aptazyme ON/OFF ratio is listed for U7C U8C G9A U11G C12A C13G ?
1.25

Also need U8A G9A U10G U11A C12U C13U , thanks.
0.98

Also need G9A U10C U11G C12U C13G , thanks.
1.43

Also need U7C U8A G9U U10G U11A C12U C13U , thanks.
1.1

Also need U7A U8A U10A U11G C12G C13U , thanks.
1.35

Also need U7A U8C G9C U10G C12G C13G , thanks.
1.11
